test system: Streptococcus pyogenes; assay: Antibacterial activity against Streptococcus pyogenes ATCC 8668 by agar dilution method; assay type: functional
Provide the recorded MIC for the entries that follow.
One number for each entry, in µg/mL.

Some entries whose results are on file:
INSERT INTO measurements (smiles, readout_label, obs_value) VALUES
  ('CC[C@H]1OC(=O)[C@H](C)C(=O)[C@H](C)[C@@H](O[C@@H]2O[C@H](C)C[C@H](N(C)C)[C@H]2O)[C@](C)(OC)C[C@@H](C)/C(=N\OC/C=C/c2cccnc2)[C@H](C)[C@@H](O)[C@]1(C)O', 'MIC', 0.25),
  ('CC[C@H]1OC(=O)[C@H](C)C(=O)[C@H](C)[C@@H](O[C@@H]2O[C@H](C)C[C@H](N(C)C)[C@H]2O)[C@](C)(OC)C[C@@H](C)/C(=N\OC/C=C/c2cccc(OC)c2)[C@H](C)[C@@H](O)[C@]1(C)O', 'MIC', 1),
  ('CC[C@H]1OC(=O)[C@H](C)C(=O)[C@H](C)[C@@H](O[C@@H]2O[C@H](C)C[C@H](N(C)C)[C@H]2O)[C@](C)(OC)C[C@@H](C)/C(=N\OC/C=C/c2ccc3c(c2)CCC3=O)[C@H](C)[C@@H](O)[C@]1(C)O', 'MIC', 0.25),
  ('CC[C@H]1OC(=O)[C@H](C)C(=O)[C@H](C)[C@@H](O[C@@H]2O[C@H](C)C[C@H](N(C)C)[C@H]2O)[C@](C)(OC)C[C@@H](C)/C(=N\OC/C=C/c2cccs2)[C@H](C)[C@@H](O)[C@]1(C)O', 'MIC', 0.06),
  ('CC[C@H]1OC(=O)[C@H](C)C(=O)[C@H](C)[C@@H](O[C@@H]2O[C@H](C)C[C@H](N(C)C)[C@H]2O)[C@](C)(OC)C[C@@H](C)/C(=N\OC/C=C/c2cncnc2)[C@H](C)[C@@H](O)[C@]1(C)O', 'MIC', 0.25);

Quick batch: MIC for everything below.
1. CC[C@H]1OC(=O)[C@H](C)C(=O)[C@H](C)[C@@H](O[C@@H]2O[C@H](C)C[C@H](N(C)C)[C@H]2O)[C@](C)(OC)C[C@@H](C)/C(=N\OC/C=C/c2ccc(OC)cc2)[C@H](C)[C@@H](O)[C@]1(C)O
2. CC[C@H]1OC(=O)[C@H](C)C(=O)[C@H](C)[C@@H](O[C@@H]2O[C@H](C)C[C@H](N(C)C)[C@H]2O)[C@](C)(OC)C[C@@H](C)/C(=N\OC/C=C/c2cncc3ccccc23)[C@H](C)[C@@H](O)[C@]1(C)O

0.5
0.25

Quick batch: MIC for everything below.
1. CC[C@H]1OC(=O)[C@H](C)C(=O)[C@H](C)[C@@H](O[C@@H]2O[C@H](C)C[C@H](N(C)C)[C@H]2O)[C@](C)(OC)C[C@@H](C)/C(=N\OC/C=C/c2cccc(C3OCCO3)c2)[C@H](C)[C@@H](O)[C@]1(C)O
2. CC[C@H]1OC(=O)[C@H](C)C(=O)[C@H](C)[C@@H](O[C@@H]2O[C@H](C)C[C@H](N(C)C)[C@H]2O)[C@](C)(OC)C[C@@H](C)/C(=N\OC/C=C/c2ccc(OC)c(OC)c2)[C@H](C)[C@@H](O)[C@]1(C)O
3. CC[C@H]1OC(=O)[C@H](C)C(=O)[C@H](C)[C@@H](O[C@@H]2O[C@H](C)C[C@H](N(C)C)[C@H]2O)[C@](C)(OC)C[C@@H](C)/C(=N\OC/C=C/c2ccc3[nH]ccc3c2)[C@H](C)[C@@H](O)[C@]1(C)O
4. CC[C@H]1OC(=O)[C@H](C)C(=O)[C@H](C)[C@@H](O[C@@H]2O[C@H](C)C[C@H](N(C)C)[C@H]2O)[C@](C)(OC)C[C@@H](C)/C(=N\OC/C=C/c2ccc3c(c2)OCO3)[C@H](C)[C@@H](O)[C@]1(C)O

[0.25, 0.25, 0.25, 0.25]

What MIC value was documented for this compound, CC[C@H]1OC(=O)[C@H](C)C(=O)[C@H](C)[C@@H](O[C@@H]2O[C@H](C)C[C@H](N(C)C)[C@H]2O)[C@](C)(OC)C[C@@H](C)/C(=N\OC/C=C/c2cnc3ccccc3c2)[C@H](C)[C@@H](O)[C@]1(C)O ?
0.06

Origin of measurements: ChEMBL document CHEMBL1156205
